Biological target: human reticulocyte 15-lipoxygenase-1 (15-hLO-1) (Homo sapiens, UniProt P16050)
Sequence (P16050 1-662): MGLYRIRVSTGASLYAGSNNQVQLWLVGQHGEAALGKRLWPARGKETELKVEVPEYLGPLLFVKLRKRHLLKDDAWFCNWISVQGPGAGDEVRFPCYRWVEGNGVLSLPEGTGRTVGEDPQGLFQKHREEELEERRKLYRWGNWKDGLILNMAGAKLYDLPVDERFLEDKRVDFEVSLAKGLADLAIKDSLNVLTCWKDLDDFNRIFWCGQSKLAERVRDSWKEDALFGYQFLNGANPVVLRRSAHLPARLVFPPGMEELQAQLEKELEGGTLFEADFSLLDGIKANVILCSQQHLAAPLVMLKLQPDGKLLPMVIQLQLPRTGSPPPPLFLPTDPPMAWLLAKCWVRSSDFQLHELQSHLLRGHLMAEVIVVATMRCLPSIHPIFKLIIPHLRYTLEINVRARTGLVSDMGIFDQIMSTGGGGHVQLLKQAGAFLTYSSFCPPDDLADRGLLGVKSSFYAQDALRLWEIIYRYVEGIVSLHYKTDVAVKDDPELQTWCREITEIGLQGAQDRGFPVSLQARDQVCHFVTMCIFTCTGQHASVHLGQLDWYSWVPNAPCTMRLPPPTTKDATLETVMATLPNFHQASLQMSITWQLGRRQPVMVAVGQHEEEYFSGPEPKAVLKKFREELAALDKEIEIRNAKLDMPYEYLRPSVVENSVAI
Assay: Kinetic inhibition assay of 15-hLO-1
Format: biochemical
Settings: Kis, substrate LA, pH 7.5, 13-HPODE activator, noncompetitive

smiles_text | subject_of_test | Ki
CCCCC/C=C\S/C=C\CCCCCCCC(=O)O | human reticulocyte 15-lipoxygenase-1 (15-hLO-1) (Homo sapiens, UniProt P16050) | 20.1 µM
